Tested on: Plasmodium berghei
testName: Antiplasmodial activity against liver stage Plasmodium berghei infected in human HuH7 cells co-expressing GFP-Luccon treated for 1 hr prior to infection followed by 24 hrs after compound washout measured after 48 hrs post-infection by Alamar Blue assay
Assay type: functional, organism-based
assaySetup: Huh-7
measureName: pIC50
One number for each entry, as −log10 of the molar value.

Known results for compounds:
INSERT INTO measurements (compound, readoutnumber) VALUES
  ('O=C(CC1NCCCC1O)Cn1cnc2cc(Br)c(Cl)cc2c1=O (stereo not drawn) [HALOFUGINONE]', 7.77),
  ('CCn1cc/c(=N\c2ccc(Oc3ccc(C(F)(F)F)cc3)cc2)c2ccc(Cl)cc21', 6.63),
  ('CCn1cc/c(=N\c2ccc(-c3ccccc3)cc2)c2ccc(Cl)cc21', 6.70),
  ('CCn1cc/c(=N\c2ccc(Oc3ccc(Cl)cc3)cc2)c2ccc(Cl)cc21', 7.06),
  ('CCn1cc/c(=N\c2cccc(CCc3ccc(OC(F)(F)F)cc3)c2)c2ccc(C(F)(F)F)cc21', 6.63),
  ('Cn1cc/c(=N\c2ccc(Oc3ccc(C(F)(F)F)cc3)cc2)c2ccc(Cl)cc21', 6.64),
  ('CCn1cc/c(=N\c2ccc(Oc3ccccc3)cc2)c2ccc(Cl)cc21', 6.67),
  ('CCn1cc/c(=N\c2ccc(Oc3cccc(OC(F)(F)F)c3)cc2)c2ccc(C(F)(F)F)cc21', 6.27),
  ('CCn1cc/c(=N\c2ccc(Oc3ccc(OC(F)(F)F)cc3)cc2)c2ccc(Cl)cc21', 6.84),
  ('CCn1cc/c(=N\c2ccc(-c3ccccc3)cc2)c2ccc(C(F)(F)F)cc21', 6.24);

Quick batch: pIC50 for everything below.
1. O=C1C(O)=C([C@H]2CC[C@H](c3ccc(Cl)cc3)CC2)C(=O)c2ccccc21 [ATOVAQUONE]
2. CCn1cc/c(=N\c2cccc(CCc3ccc(Cl)cc3)c2)c(Cl)c1
3. CCn1cc/c(=N\c2cccc(CCc3ccc(OC(F)(F)F)cc3)c2)c2ccc(Cl)cc21
4. Cc1nc(C)c(Cl)c(O)c1Cl [CLOPIDOL]

Reply:
1: 9.42; 2: 6.39; 3: 6.64; 4: 5.84

Quick batch: pIC50 for everything below.
1. CCn1cc/c(=N\c2ccc(Cc3ccccc3)cc2)c2ccc(Cl)cc21
2. CCn1cc/c(=N\c2ccc(Oc3cccc(OC(F)(F)F)c3)cc2)c2ccc(Cl)cc21

Reply:
6.23
7.09

----------
testName: Half life in rat liver microsomes at 1 uM after 24 hrs by LC-MS/MS analysis
assaySetup: microsomes
measureName: half-life at 24 h, 1 µM

Quick batch: half-life at 24 h, 1 µM for everything below.
1. CCn1cc/c(=N\c2ccc(Oc3cccc(OC(F)(F)F)c3)cc2)c2ccc(C(F)(F)F)cc21
2. CCn1cc/c(=N\c2ccc(Oc3ccc(Cl)cc3)cc2)c2ccc(Cl)cc21

Reply:
1. 8.5 h
2. 3.9 h

----------
testName: Selectivity index, ratio of CC50 for human HepG2 cells to IC50 for liver stage Plasmodium berghei
Assay type: functional
measureName: Ratio CC50/IC50
Answers are plain numbers.

Quick batch: Ratio CC50/IC50 for everything below.
1. CCn1cc/c(=N\c2ccc(Oc3ccc(OC(F)(F)F)cc3)cc2)c2ccc(Cl)cc21
2. CCn1cc/c(=N\c2ccc(Oc3ccc(Cl)cc3)cc2)c2ccc(Cl)cc21
3. CCn1cc/c(=N\c2cccc(CCc3ccc(OC(F)(F)F)cc3)c2)c2ccc(C(F)(F)F)cc21
4. CCn1cc/c(=N\c2ccc(Oc3cccc(OC(F)(F)F)c3)cc2)c2ccc(Cl)cc21
5. CCn1cc/c(=N\c2ccc(Cc3ccccc3)cc2)c2ccc(Cl)cc21
6. CCn1cc/c(=N\c2ccc(-c3ccccc3)cc2)c2ccc(C(F)(F)F)cc21

Reply:
1. 24.3
2. 30.9
3. 25.9
4. 63.7
5. 4.91
6. 12.2
